Entries and their IC50 values follow.
TESTED_SYSTEM: plasma kallikrein (Homo sapiens, UniProt P03952)
Sequence (P03952 391-638 limits assumed): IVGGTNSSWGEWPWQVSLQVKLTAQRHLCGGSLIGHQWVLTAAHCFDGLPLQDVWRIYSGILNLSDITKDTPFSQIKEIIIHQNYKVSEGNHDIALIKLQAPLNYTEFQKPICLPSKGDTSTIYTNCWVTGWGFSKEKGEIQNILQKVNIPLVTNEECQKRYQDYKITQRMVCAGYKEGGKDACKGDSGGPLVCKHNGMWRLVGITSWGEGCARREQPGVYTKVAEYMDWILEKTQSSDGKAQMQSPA
Sequence (P03952 20-390 partner limits assumed): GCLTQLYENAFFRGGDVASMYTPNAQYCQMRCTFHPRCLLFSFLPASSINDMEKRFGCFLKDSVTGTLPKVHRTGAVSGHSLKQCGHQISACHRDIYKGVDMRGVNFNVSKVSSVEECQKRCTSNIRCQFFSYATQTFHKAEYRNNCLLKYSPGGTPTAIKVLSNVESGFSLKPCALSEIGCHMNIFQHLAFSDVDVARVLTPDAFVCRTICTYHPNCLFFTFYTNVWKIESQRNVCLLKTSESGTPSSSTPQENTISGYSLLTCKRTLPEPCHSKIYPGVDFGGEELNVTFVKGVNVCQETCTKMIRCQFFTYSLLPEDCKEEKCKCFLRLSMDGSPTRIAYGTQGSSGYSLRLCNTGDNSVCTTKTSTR
TEST_METHOD_NOTES: Activity measurement of chemically synthesized human plasma kallikrein inhibitors (residual activity, Z-Phe-Arg-AMC)
Type: biochemical
Design: purchased Innovative Research (Southfiled, Mich., USA)
EXPERIMENTAL_CONDITIONS: synthetic peptide after modification with TBMB; human plasma kallikrein 0.1 nM; read-out: IC50 (nM) Bi-cyclic peptide
*1 amine or outer side, *2 acyl side, *3 side chain or, on linkers, in order; H or OH if unused. Where a SMILES comes first, the peptide text is derived from it. Bridges are numbered along the chain shown (N, C = ends). TBMB = c1c(C[*:1])cc(C[*:3])cc1C[*:2]
Answer with a number only, understood to be in nM.

COMPOUND | MEASUREMENT_UNIT | IC50
CSCC[C@@H]1NC(=O)[C@H](CC(C)C)NC(=O)[C@H](CC(=O)O)NC(=O)[C@H](CCC(=O)O)NC(=O)[C@H](Cc2ccc(O)cc2)NC(=O)[C@@H]2CSCc3cc(cc(c3)CSC[C@@H](C(=O)NCC(N)=O)NC(=O)[C@H](Cc3c[nH]c4ccccc34)NC1=O)CSC[C@H](NC(=O)[C@H](C)N)C(=O)N[C@@H](C)C(=O)N1CCC[C@H]1C(=O)N[C@@H](Cc1c[nH]c3ccccc13)C(=O)N[C@@H](CCCNC(=N)N)C(=O)N[C@@H]([C@@H](C)O)C(=O)N[C@@H](C)C(=O)N2 [PK6] (H-ACAPWRTACYEDLMWCG-NH2; linker 2-9-16 via TBMB) | nM | 21.2
CC(C)[C@@H]1NC(=O)[C@H](CCCNC(=N)N)NC(=O)[C@@H]2CSCc3cc(cc(c3)CSC[C@@H](C(=O)NCC(N)=O)NC(=O)[C@@H]3CCCN3C(=O)[C@H]([C@@H](C)O)NC(=O)[C@H](Cc3c[nH]c4ccccc34)NC(=O)[C@H](CC(N)=O)NC1=O)CSC[C@H](NC(=O)[C@H](C)N)C(=O)NCC(=O)N[C@@H]([C@@H](C)O)C(=O)NCC(=O)N[C@@H](CCC(=O)O)C(=O)NCC(=O)N[C@@H](CCCNC(=N)N)C(=O)N2 [PK13] (H-ACGTGEGRCRVNWTPCG-NH2; linker 2-9-16 via TBMB) | nM | 39.1

GET /values?readout=IC50&item= CC[C@H](C)[C@@H]1NC(=O)[C@H](CCC(=O)O)NC(=O)[C@H]([C@@H](C)CC)NC(=O)[C@@H]2CCCN2C(=O)[C@@H]2CSCc3cc(cc(c3)CSC[C@@H](C(=O)NCC(N)=O)NC(=O)[C@@H]3CCCN3C(=O)[C@H](Cc3ccccc3)NC1=O)CSC[C@H](NC(=O)[C@H](C)N)C(=O)N[C@@H](CO)C(=O)N[C@@H]([C@@H](C)O)C(=O)N[C@@H](CCC(=O)O)C(=O)N[C@@H](CCCNC(=N)N)C(=O)N[C@@H](CCCNC(=N)N)C(=O)N[C@@H](Cc1ccc(O)cc1)C(=O)N2 [PK4] (H-ACSTERRYCPIEIFPCG-NH2; linker 2-9-16 via TBMB)
33

// provenance: patent US9657288B2
